Measurement target: Agonist Androgen Response Element (ARE), AR (gene 367) (UniProt P10275)
Sequence (P10275 whole entry, looked up): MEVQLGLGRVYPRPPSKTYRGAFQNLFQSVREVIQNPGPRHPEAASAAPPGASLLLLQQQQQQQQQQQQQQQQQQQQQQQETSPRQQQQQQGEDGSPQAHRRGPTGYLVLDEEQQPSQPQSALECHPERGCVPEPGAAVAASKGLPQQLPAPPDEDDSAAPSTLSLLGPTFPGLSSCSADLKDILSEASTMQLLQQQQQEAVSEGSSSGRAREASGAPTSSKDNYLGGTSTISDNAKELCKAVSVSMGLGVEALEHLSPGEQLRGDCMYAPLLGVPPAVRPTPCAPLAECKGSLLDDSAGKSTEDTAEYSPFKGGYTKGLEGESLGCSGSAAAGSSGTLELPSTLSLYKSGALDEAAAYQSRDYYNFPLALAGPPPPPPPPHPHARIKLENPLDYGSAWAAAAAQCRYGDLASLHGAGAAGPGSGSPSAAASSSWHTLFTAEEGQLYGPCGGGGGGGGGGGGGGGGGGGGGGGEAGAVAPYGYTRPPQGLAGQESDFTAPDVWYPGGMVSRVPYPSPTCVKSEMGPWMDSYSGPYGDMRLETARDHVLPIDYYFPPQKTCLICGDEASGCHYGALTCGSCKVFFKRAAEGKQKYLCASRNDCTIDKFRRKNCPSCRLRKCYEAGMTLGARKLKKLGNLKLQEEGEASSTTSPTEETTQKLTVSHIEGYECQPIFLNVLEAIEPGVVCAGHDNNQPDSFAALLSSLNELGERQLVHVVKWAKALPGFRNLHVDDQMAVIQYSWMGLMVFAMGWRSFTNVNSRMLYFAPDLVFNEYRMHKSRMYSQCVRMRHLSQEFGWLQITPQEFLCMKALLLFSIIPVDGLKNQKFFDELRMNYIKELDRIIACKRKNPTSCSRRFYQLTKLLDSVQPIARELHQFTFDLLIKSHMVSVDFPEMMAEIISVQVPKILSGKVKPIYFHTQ
Test: OT_AR_ARELUC_AG_1440: Odyssey Thera (OT) 24-hour CHO-K1 Luciferase Assay for Agonist Androgen Response Element (ARE) (AID 2283379)
Records with an inconclusive call do not appear. The source made the active and inactive calls. Rule for the calls: active = hit-call score of the fitted dose curve at least 0.9, where 1 is the maximum; inconclusive = response in the unintended direction; inactive = score below 0.9.
Pick one and only one: active, inactive

Consider the following illustrative entries.
>>> label_value("CC(C)(O)C(=O)Nc1ccc([N+](=O)[O-])c(C(F)(F)F)c1")
"inactive"
>>> label_value("CC1=C2C[C@H]3[C@@H](CC=C4C[C@@H](O)CC[C@@]43C)[C@@H]2CC[C@]12O[C@@H]1C[C@H](C)CN[C@H]1[C@H]2C")
"inactive"
>>> label_value("CCOC(=O)C(O)(c1ccc(Cl)cc1)c1ccc(Cl)cc1")
"inactive"
>>> label_value("NS(=O)(=O)C(F)(F)C(F)(F)C(F)(F)C(F)(F)C(F)(F)C(F)(F)C(F)(F)C(F)(F)F")
"inactive"
>>> label_value("O=C(N[C@H]1CN2CCC1CC2)c1cc2ccoc2cn1")
"active"

With those in mind, consider the next compound.
Entry c1cc2ccc3cccc4ccc(c1)c2c34 : call = ?
inactive

###

Measurement target: Androgen receptor (Homo sapiens) (UniProt P10275)
Sequence (P10275 whole entry, looked up): as above
Test: ATG_AR_TRANS: Attagene TRANS-FACTORIAL HepG2 Assay for human Androgen Receptor (AR) (AID 2282973)
Run parameters: HepG2 Attagene TRANS-FACTORIAL AR reporter transcription
Records with an inconclusive call do not appear. Calls of active or inactive are those of the source. Rule for the calls: active = hit-call score of the fitted dose curve at least 0.9, where 1 is the maximum; inconclusive = response in the unintended direction; inactive = score below 0.9.
The categories you may choose from are TRUE = active, FALSE = inactive

>>> label_value("O=C(NC(=O)c1c(F)cccc1F)Nc1cc(Cl)c(OC(F)(F)C(F)F)c(Cl)c1")
"FALSE"
>>> label_value("CCOC(=O)C(O)(c1ccc(Cl)cc1)c1ccc(Cl)cc1")
"FALSE"
>>> label_value("CCNc1nc(NC(C)C)nc(SC)n1")
"FALSE"

// outcome(item) with item = CCC(=O)O[C@H]1CC[C@H]2[C@@H]3CCC4=CC(=O)CC[C@]4(C)[C@H]3CC[C@]12C
TRUE

###

Read-out: Tissue plasminogen activator (tPA), PLAT (gene 5327)
Test: BSK_BE3C_tPA: BioMAP Diversity Plus: BE3C Assay for Tissue plasminogen activator (tPA) Biomarker Activity (AID 2283041)
Run parameters: primary human bronchial epithelial cells; actives raise or lower the signal
Calls of active or inactive are those of the source. How the source made its calls: active means hit-call score of the fitted dose curve at least 0.9, where 1 is the maximum; inactive means score below 0.9.
Parameter call: string, one of active, inactive

>>> label_value("CCC(C)(c1ccc(O)cc1)c1ccc(O)cc1")
"inactive"
>>> label_value("CCOC(=O)C(O)(c1ccc(Cl)cc1)c1ccc(Cl)cc1")
"inactive"
>>> label_value("Clc1ccc(C(c2ccccc2Cl)C(Cl)(Cl)Cl)cc1 (stereo not given)")
"inactive"
>>> label_value("C=CC(=O)NCNC(=O)C=C")
"inactive"
>>> label_value("CO/C=C(/C(=O)OC)c1ccccc1COc1cccc(C(F)(F)F)n1")
"inactive"
>>> label_value("CC1=C2C[C@H]3[C@@H](CC=C4C[C@@H](O)CC[C@@]43C)[C@@H]2CC[C@]12O[C@@H]1C[C@H](C)CN[C@H]1[C@H]2C")
"inactive"
>>> label_value("Nc1ccc(-c2ccc(N)cc2)cc1")
"active"
>>> label_value("Clc1ccc(Cl)cc1")
"inactive"
>>> label_value("ClC1=C(Cl)[C@]2(Cl)[C@@H]3[C@@H]4C[C@@H]([C@H]5O[C@@H]45)[C@@H]3[C@@]1(Cl)C2(Cl)Cl")
"inactive"
>>> label_value("CCCCCCCCCC[N+](C)(C)CCCCCCCCCC")
"active"

Recorded call for O=C(NC(=O)c1cc(F)c(F)cc1Cl)Nc1cc(F)ccc1N1CCC(C(=O)O)CC1 ?
inactive

Please state the recorded outcome for this molecule: Cc1cccc([N+](=O)[O-])c1
inactive

###

Read-out: Cyclin D1 (CCND1), CCND1 (gene 595)
Test: LTEA_HepaRG_CCND1: Life Technologies and Expression Analysis (LTEA) Assay for Cyclin D1 (CCND1) using HepaRG (AID 2283451)
Run parameters: mRNA level, 48 h; actives raise or lower the signal
Activity calls are given as the source filed them. How the source made its calls: active means hit-call score of the fitted dose curve at least 0.9, where 1 is the maximum; inactive means score below 0.9.
Your reply should match one of these outcome classes. class 1 for active, class 0 for inactive

Examples with answers:
>>> label_value("CCOC(=O)C(O)(c1ccc(Cl)cc1)c1ccc(Cl)cc1")
"class 0"
>>> label_value("CC1=C2C[C@H]3[C@@H](CC=C4C[C@@H](O)CC[C@@]43C)[C@@H]2CC[C@]12O[C@@H]1C[C@H](C)CN[C@H]1[C@H]2C")
"class 0"
>>> label_value("CCNc1nc(NC(C)C)nc(SC)n1")
"class 0"
>>> label_value("CC(C)C(=O)OCC(C)(C)C(OC(=O)C(C)C)C(C)C (stereo not drawn)")
"class 0"
>>> label_value("Cc1cccc([N+](=O)[O-])c1")
"class 0"
>>> label_value("CCOP(=S)(OCC)SCSC(C)(C)C")
"class 0"
>>> label_value("Oc1c(Cl)c(Cl)c(Cl)c(Cl)c1Cl")
"class 0"
>>> label_value("CC(C)(c1ccccc1)c1ccc(O)cc1")
"class 0"

Called result for C=CC(=O)NCNC(=O)C=C
class 0

// param item: CCCCCCCCCC[N+](C)(C)CCCCCCCCCC ; yields the recorded call
class 1

What did this assay record as the result for Cc1cc(-c2ccc(N)c(C)c2)ccc1N ?
class 0

###

Test: ATG_MRE_CIS: Attagene CIS-FACTORIAL HepG2 Assay for human Metal Responsive Element (MRE) (AID 2282954)
Run parameters: HepG2 MRE cis-reporter transcription, Attagene multiplex; actives raise or lower the signal
Calls of active or inactive are those of the source. Rule for the calls: active = hit-call score of the fitted dose curve at least 0.9, where 1 is the maximum; inactive = score below 0.9.
Your reply should match one of these outcome classes. t = active, f = inactive

Solved entries (count: 5):
>>> label_value("O=S(=O)(O)C(F)(F)C(F)(F)C(F)(F)C(F)(F)C(F)(F)C(F)(F)F")
"f"
>>> label_value("CCCCCCCCCC[N+](C)(C)CCCCCCCCCC")
"t"
>>> label_value("CCCCCCCCOC(=O)c1ccccc1C(=O)OCCCCCCCC")
"f"
>>> label_value("Cc1cccc([N+](=O)[O-])c1")
"f"
>>> label_value("C=CC(N)=O")
"f"

Now let's try a different one.
What was the test verdict on Cc1ccccc1[N+](=O)[O-] ?
f

###

Read-out: Cytochrome P450 (CYP1A1), CYP1A1 (gene 1543)
Test: LTEA_HepaRG_CYP1A1: Life Technologies and Expression Analysis (LTEA) Assay for Cytochrome P450 (CYP1A1) using HepaRG (AID 2283454)
Run parameters: mRNA level, 48 h; actives raise or lower the signal
Activity calls are given as the source filed them. Rule for the calls: active = hit-call score of the fitted dose curve at least 0.9, where 1 is the maximum; inactive = score below 0.9.
Would you mind answering with one of these outcomes? t for active, f for inactive

Some solved entries appear below for comparison.
>>> label_value("CN(C)c1nc(=O)n(C2CCCCC2)c(=O)n1C")
"t"
>>> label_value("CCOC(=O)C(O)(c1ccc(Cl)cc1)c1ccc(Cl)cc1")
"t"
>>> label_value("CCOCCOC(C)=O")
"t"
>>> label_value("CCCCCCCCOC(=O)c1ccccc1C(=O)OCCCCCCCC")
"f"
>>> label_value("C1CC2OC2CC1C1CO1 (configuration not stated)")
"f"

State the result this test recorded for O=NN(c1ccccc1)c1ccccc1 .
t

Hi team, can someone confirm the assay call for Nc1ccc(-c2ccc(N)cc2)cc1 ?
t

Give the logged outcome of this assay for the following compound: NS(=O)(=O)C(F)(F)C(F)(F)C(F)(F)C(F)(F)C(F)(F)C(F)(F)C(F)(F)C(F)(F)F
t

Name the outcome recorded for COS(=O)(=O)OC in the assay.
t

So what was the verdict on O=C(O)C(F)(F)C(F)(F)C(F)(F)C(F)(F)C(F)(F)F in this test?
t

Hey, what did the test say about O=C(N[C@H]1CN2CCC1CC2)c1cc2ccoc2cn1 ?
t

Hi, do you know how Cc1cc(O)ccc1Cl came out in this test?
f

Test call for this compound, please: ClC1=C(Cl)[C@]2(Cl)[C@@H]3[C@@H]4C[C@@H]([C@H]5O[C@@H]45)[C@@H]3[C@@]1(Cl)C2(Cl)Cl
t

What did the test return for O=C(O)C(F)(F)C(F)(F)C(F)(F)C(F)(F)C(F)(F)C(F)(F)C(F)(F)C(F)(F)F ?
f

Recorded call for CCOP(=S)(OCC)SCSC(C)(C)C ?
f

Tell me the assay call for O=C(NC(=O)c1c(F)cccc1F)Nc1cc(Cl)c(OC(F)(F)C(F)F)c(Cl)c1 please.
t

What call does the record list for CO/C=C(/C(=O)OC)c1ccccc1COc1cccc(C(F)(F)F)n1 ?
t

Please share the test call associated with CC#Cc1cc(C)nc(Nc2ccccc2)n1 .
t

###

Test: CCTE_Simmons_MITO_max_resp_rate: CCTE's HepG2 Seahorse XF Respirometric Screening Assay at Maximal Respiratory State [uncoupled], Simmons Lab (AID 2284002)
Run parameters: actives raise or lower the signal
Activity calls are given as the source filed them. Rule for the calls: active = hit-call score of the fitted dose curve at least 0.9, where 1 is the maximum; inactive = score below 0.9.
Thanks in advance; please answer with one of these: active, inactive

A selection of reference data follows.
>>> label_value("CCCCCCCCCC[N+](C)(C)CCCCCCCCCC")
"active"
>>> label_value("Oc1ccc(C(c2ccc(O)cc2)(C(F)(F)F)C(F)(F)F)cc1")
"active"
>>> label_value("C[C@]12CCC(=O)C=C1CC[C@@H]1[C@@H]2CC[C@@]2(C)[C@H]1CC[C@]2(C)O")
"inactive"
>>> label_value("CC(c1ccc(O)cc1)(c1ccc(O)cc1)c1ccc(O)cc1")
"inactive"
>>> label_value("CCC(=O)O[C@H]1CC[C@H]2[C@@H]3CCC4=CC(=O)CC[C@]4(C)[C@H]3CC[C@]12C")
"inactive"
>>> label_value("CCC(C)c1cc([N+](=O)[O-])cc([N+](=O)[O-])c1O (stereo unspecified)")
"active"
>>> label_value("NS(=O)(=O)C(F)(F)C(F)(F)C(F)(F)C(F)(F)C(F)(F)C(F)(F)C(F)(F)C(F)(F)F")
"inactive"
>>> label_value("CCNc1nc(NC(C)C)nc(SC)n1")
"inactive"
>>> label_value("O=C(O)C(F)(F)C(F)(F)C(F)(F)C(F)(F)C(F)(F)C(F)(F)C(F)(F)C(F)(F)C(F)(F)F")
"inactive"
>>> label_value("CC(C)(O)C(=O)Nc1ccc([N+](=O)[O-])c(C(F)(F)F)c1")
"active"

Call for entry CO/C=C(/C(=O)OC)c1ccccc1COc1cccc(C(F)(F)F)n1 :
active
